meta.source: paper PMC10720262

Molecular target: recombinant full-length PfCSP (Plasmodium falciparum circumsporozoite protein, strain NF54) (Plasmodium falciparum NF54, UniProt P19597)
Sequence (P19597 20-375): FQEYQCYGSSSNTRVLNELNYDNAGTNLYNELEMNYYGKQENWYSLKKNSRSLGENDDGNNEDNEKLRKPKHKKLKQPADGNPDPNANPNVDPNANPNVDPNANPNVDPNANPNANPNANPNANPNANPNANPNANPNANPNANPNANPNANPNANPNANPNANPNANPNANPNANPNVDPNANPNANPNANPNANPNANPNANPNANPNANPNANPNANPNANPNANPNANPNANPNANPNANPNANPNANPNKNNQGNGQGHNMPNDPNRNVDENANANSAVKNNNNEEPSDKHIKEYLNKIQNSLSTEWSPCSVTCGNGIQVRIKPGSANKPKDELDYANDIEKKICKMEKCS
measured_metric: binding result

binder | reported_measurement
CL-460619 (antibody, V domains shown) VH: QVQLVESGGGVVQPGRSLRLSCAASGFTFDYYGMHWVRQAPGKGLEGVAIIWYDGSNKFYADSVKGRFTISRDNSKNTLYLQMTSLRVEDTAVYYCARDGRIGDPGPYFDYWGQGTLVTVSS VL: EIVMTQSPATLSVSPGERPTLSCRASQSVSSKLAWYQQKPDQAPRLLIYGASTRATGIPPRFSGSGSGTEFTLTIDSLQSEDFAVYYCQQYHKWWTFGQGTKVEIK | binds
CL-512011 (antibody, V domains shown) VH: QVQLVESGGGVVQPGRSLRLSCVTSGFTFSSFGMHWVRQAPGKGLEWVALIWYDGSHKFYADSLTGRFTISRDNSKNTLYLQMNSLRVEDTAVYYCARAHAVTTANDKYGTDVWGQGTTVNVSP VL: DIQMTQSPSTLSASVGDRVTITCRASQSISSWLAWYQHKPGNAPKLLIYKASNLESGVPSRFSGSGSGTEFTLTISSLQPDDFATYFCQQYNSYWTFGQGTKVEVK | binds
CL-444588 (antibody, V domains shown) VH: QVQLVESGGGVVQPGRSLRLSCAASGFTFSGYGMHWVRQTPGKGLGWVALIWYDGSNKFYADSVRGRFTISRDNSKNTLYLQMNSLRAEDTAIYYCARSYPSGSRGDKYGMDVWGQGTTVTVSL VL: DIQMTQSPSTLSASVGDRVTITCRASQSISTWLAWFQQKPGKAPKLLIYKASSLESGVPSRFTGSGSGTEFTLTISSLQPDDFATYYCQQYNSYWTFGQGTKVEIK | binds
